B1: TRIM43 (parent)
chain: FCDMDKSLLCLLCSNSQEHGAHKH

Variants of: B1
Experiment: protein stability index of a GFP-peptide fusion (GPS, HEK-293T) (PSI 1-6); higher = more stable;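 also: lentivirally expressed fusions sorted by FACS into six bins by GFP to DsRed ratio, PSI derived from sequencing read proportions per bin multiplied by bin number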
Details: c terminus: a fixed tail appended
Recorded protein stability index by entry
Form field (numeric): enter value without unit.

variant: C10R
protein stability index: 1.7
//
variant: S16Q
protein stability index: 2.13
//
variant: L12R
protein stability index: 1.96
//
variant: L11G
protein stability index: 1.93

# context switch: different variant, same protein stability index
Supply measured protein stability index of "C10A" in your reply.
2.23
